# study_system: EGFR (Homo sapiens, UniProt P00533)
# Sequence (P00533 25-1210): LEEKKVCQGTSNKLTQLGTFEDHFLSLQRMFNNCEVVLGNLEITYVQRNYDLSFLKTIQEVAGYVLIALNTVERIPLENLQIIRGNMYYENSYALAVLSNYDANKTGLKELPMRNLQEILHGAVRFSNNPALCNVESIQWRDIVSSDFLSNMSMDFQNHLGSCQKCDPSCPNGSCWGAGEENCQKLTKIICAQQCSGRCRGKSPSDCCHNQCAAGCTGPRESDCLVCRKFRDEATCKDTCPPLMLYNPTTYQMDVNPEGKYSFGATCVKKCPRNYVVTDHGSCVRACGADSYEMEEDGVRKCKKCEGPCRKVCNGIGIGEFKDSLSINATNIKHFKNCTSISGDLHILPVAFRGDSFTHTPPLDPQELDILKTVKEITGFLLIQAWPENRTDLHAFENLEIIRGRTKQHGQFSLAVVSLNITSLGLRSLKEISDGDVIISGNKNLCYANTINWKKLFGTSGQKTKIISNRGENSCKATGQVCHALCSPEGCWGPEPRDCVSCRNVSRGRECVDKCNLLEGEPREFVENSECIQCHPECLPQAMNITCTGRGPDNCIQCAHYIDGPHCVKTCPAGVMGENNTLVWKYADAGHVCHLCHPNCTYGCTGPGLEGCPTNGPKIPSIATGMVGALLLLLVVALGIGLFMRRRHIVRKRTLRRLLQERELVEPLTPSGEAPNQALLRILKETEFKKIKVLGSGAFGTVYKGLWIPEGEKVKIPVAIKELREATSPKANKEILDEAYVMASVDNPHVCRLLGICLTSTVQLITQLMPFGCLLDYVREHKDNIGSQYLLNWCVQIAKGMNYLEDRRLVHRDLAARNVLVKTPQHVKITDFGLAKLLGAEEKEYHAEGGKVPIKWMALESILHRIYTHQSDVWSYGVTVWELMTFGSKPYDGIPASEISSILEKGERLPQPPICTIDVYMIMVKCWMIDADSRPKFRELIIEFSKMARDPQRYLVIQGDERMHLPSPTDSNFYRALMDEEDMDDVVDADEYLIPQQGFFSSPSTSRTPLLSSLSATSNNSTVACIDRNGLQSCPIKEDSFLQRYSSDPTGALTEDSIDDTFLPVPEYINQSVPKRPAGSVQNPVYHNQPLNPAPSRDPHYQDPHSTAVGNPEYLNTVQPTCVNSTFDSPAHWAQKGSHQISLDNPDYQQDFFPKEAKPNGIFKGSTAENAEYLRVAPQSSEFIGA
# protocol_description: Inhibition of a panel of kinases, in vitro HotSpot kinase assay: EGFR
# Format: biochemical
# experimental_parameters: D-compounds panel data; 1 μM ATP
Listed here: items and their measured IC50.

>  <molecule>
C[C@@H]1[C@H](NC(=O)c2ccc(C3CC3)cc2)CCCN1c1cnc(C(N)=O)c(Nc2ccc(N3CCC4(CC3)COC4)cc2)n1

>  <study_system>
EGFR (Homo sapiens, UniProt P00533)

>  <IC50>
1 to 10 µM

$$$$
>  <molecule>
C[C@@H]1[C@H](NC(=O)c2ccc(C3CC3)c(O)c2)CCCN1c1cnc(C(N)=O)c(Nc2cnn(C)c2)n1

>  <study_system>
EGFR (Homo sapiens, UniProt P00533)

>  <IC50>
1 to 10 µM

$$$$
>  <molecule>
Cn1cc(Nc2nc(N3C4CCC(NC(=O)c5ccc(C6CC6)cc5)C3CC4)cnc2C(N)=O)cn1 (single isomer, unassigned) [Example D-202]

>  <study_system>
EGFR (Homo sapiens, UniProt P00533)

>  <IC50>
> 10 µM

$$$$
>  <molecule>
C[C@@H]1[C@H](NC(=O)c2c[nH]c(C3CC3)n2)CCCN1c1cnc(C(N)=O)c(Nc2cnn(C)c2)n1

>  <study_system>
EGFR (Homo sapiens, UniProt P00533)

>  <IC50>
0.1 to 1 µM

$$$$
>  <molecule>
CNC(=O)N[C@@H]1CCCN(c2cnc(C(N)=O)c(Nc3cnn(C)c3)n2)[C@@H]1C

>  <study_system>
EGFR (Homo sapiens, UniProt P00533)

>  <IC50>
1 to 10 µM

$$$$
>  <molecule>
C[C@@H]1[C@H](NC(=O)c2ccc(C3CC3)cc2F)CCCN1c1cnc(C(N)=O)c(Nc2nc3c(s2)CN(C)CC3)n1

>  <study_system>
EGFR (Homo sapiens, UniProt P00533)

>  <IC50>
> 10 µM

$$$$
>  <molecule>
C[C@@H]1[C@H](NC(=O)c2ccc(S(F)(F)(F)(F)F)cc2)CCCN1c1cnc(C(N)=O)c(Nc2cnn(C)c2)n1

>  <study_system>
EGFR (Homo sapiens, UniProt P00533)

>  <IC50>
1 to 10 µM

$$$$
>  <molecule>
CC(C)N1CCN(c2ccc(Nc3nc(N4CCC[C@@H](NC(=O)c5ccc(C6CC6)cc5F)[C@H]4C)cnc3C(N)=O)cc2)CC1

>  <study_system>
EGFR (Homo sapiens, UniProt P00533)

>  <IC50>
0.1 to 1 µM

$$$$

-- ask Report value: IC50, system: EGFR (Homo sapiens, UniProt P00533), molecule: CN1CCN(c2ccc(Nc3nc(N4CCC[C@@H](n5ccc6cc(C7CC7)cc(F)c6c5=O)C4)cnc3C(N)=O)cc2)CC1
-- reply 0.1 to 1 µM

-- ask Report value: IC50, system: EGFR (Homo sapiens, UniProt P00533), molecule: C[C@H]1CC[C@H](NC(=O)c2ccc(C3CC3)cc2)CN1c1cnc(C(N)=O)c(Nc2cnn(C)c2)n1
-- reply > 10 µM

-- ask Report value: IC50, system: EGFR (Homo sapiens, UniProt P00533), molecule: C[C@@H]1[C@H](NC(=O)c2ccc(C3(CO)CC3)cc2)CCCN1c1cnc(C(N)=O)c(Nc2cnn(C)c2)n1
-- reply 1 to 10 µM

-- ask Report value: IC50, system: EGFR (Homo sapiens, UniProt P00533), molecule: Cn1cc(Nc2nc(N3CCC[C@@H](n4ccc5cc(C6CC6)ccc5c4=O)C3)nnc2C(N)=O)cn1
-- reply 1 to 10 µM

-- ask Report value: IC50, system: EGFR (Homo sapiens, UniProt P00533), molecule: C[C@@H]1[C@H](NC(=O)N(C)C)CCCN1c1cnc(C(N)=O)c(Nc2ccc(N3CCN(C)CC3)cc2)c1
-- reply > 10 µM

-- ask Report value: IC50, system: EGFR (Homo sapiens, UniProt P00533), molecule: C[C@@H]1[C@H](NC(=O)c2ccc(N(C)C)cc2)CCCN1c1cnc(C(N)=O)c(Nc2ccc(N3CCN(C)CC3)cc2)n1
-- reply 0.1 to 1 µM

-- ask Report value: IC50, system: EGFR (Homo sapiens, UniProt P00533), molecule: C[C@@H]1[C@H](NC(=O)c2ccc(N(C)C)cn2)CCCN1c1cnc(C(N)=O)c(Nc2cnn(C)c2)n1
-- reply 1 to 10 µM

-- ask Report value: IC50, system: EGFR (Homo sapiens, UniProt P00533), molecule: C[C@@H]1[C@H](NC(=O)c2ccc(C3CC3)cc2)CCCN1c1cnc(C(N)=O)c(Nc2ccc(C3CCN(C)CC3)cc2)n1
-- reply 0.1 to 1 µM
